- test: soluble on expression in E. coli; label from the status in PepcDB or PDB records
readout: soluble on expression in E. coli

# sequenceRecord, measuredValue
rows = [
    ("MYVCLCHAITDTQIKNAVSQGDTSLADVKKRLGVADQCGKCARMAVQIIQNQLEIEPKYYEVA", "soluble"),
    ("MIQDTRPLIRVVAGILLDSDGNYLLSSRPEGKPYAGYWEFAGGKVEAGETDFQALQREFEEELGIRILAATPWLTKIHSYEHARVCLKFLWVNPDQWTGKPQSREGQEWSWQKAGDFTVAPMLPANGALLRSLSVPRRLYGSLKTGLHGENSMGAYRVLPLGSAEGSGANVLMEAAQWQDRPEHADSVWMVVQTREQWRRAQEKGADAVVWRVCDDVQAQEAAEALRQGVSVPLVLAANGQTVARYGKLWLGLGAHVVVRDETIGKNHE", "not soluble"),
    ("MAHHHHHHMVGLRTRNVIDPIHGGVGRVIGGKGVSIDRNDGSIISDNEGENDRNGGDIPKAEGEEGRDAQDKGNAKVVMPIDEANQSNIANICSCDFTERLNFIPQEKTKVVCNLNPHHGEEVKIWVNKEYEVKCFQNSRVYCPSKDNIVNNTDITTYSPKLKYNISDVVHRDREVKEYHLQIDKDASDILLFCSIKPKQVSELLEGEVKINLKREISEEYSIPDEHGIHACNFSKGNLDISPSAGFYYKNDRSVSCIYLVIPNKLFLIKLPKLDIVTNQLLPSLVNCLSEHSFINFNLKHVEEGDESISLHLSFGDFKRTFNLSCAFDLSEYVIEPCLLGKKGIVTFYFNA", "not soluble"),
    ("MATVHKVGDSTGWTTLVPYDYAKWASSNKFHVGDSLLFNYNNKFHNVLQVDQEQFKSCNSSSPAASYTSGADSIPLKRPGTFYFLCGIPGHCQLGQKVEIKVDPGSSSA", "soluble"),
    ("MRRIILIFSLLTLSLMAFGEEIKVDRSVEESITKDYDQDGVYSSYEKALRRAQESVYVKLPEKRGYWYTILDRVKAEEEELMPEEINRMRRR", "not soluble"),
    ("MKPLSSAIAAALILFSAQGVAEQTTQPVVTSCANVVVVPPSQEHPPFDLNHMGTGSDKSDALGVPYYNQHAM", "soluble"),
    ("SGAISGDSLISLASTGKRVSIKDLLDEKDFEIWAINEQTMKLESAKVSRVFMTGKKLVYILKTRLGRTIKATANHRFLTIDGWKRLDELSLKEHIALPRKLESSSLQLSPEIEKLSQSDISWDSIVSITETGVEEVFDLTVPGPHNFVANDIIVHASI", "soluble"),
    ("NEFELGTRGSSRVDLQEQRSVKTRVSLDDLFEQIKQGEMKELNLIVKADVQGSVEALVAALQKIDVEGVRVKIIHAAVGAITESDISLATASNAIVIGFNVRPDANAKRAAESEKVDIRLHRIIYNVIEEIEAAM", "soluble"),
    ("MTEEFYIGTYTKRISRGIYRVSVDTTTPKLMDCEWLASAGSPTYIAKSNAKRLYVINKKETDGQTHGGLIIYDMSEDKPRAIQQLLDLGSSPAYVAVDEDRQLVYTANYHTAAVDVYAINPDGTLKRTDQVIDQDPVGPAPEQADGPHPHFADLTPDNRLVVCDLGSDRVYVYDVSATGKLSAVSHLDLPAGYGPRHIVFDAKKGVAYLVGELSSNVATLSYDTATGTFTVKTIVSTIPDDWTAHNGAAAIRLSADGKFVYVSNRGNNSLAVFASDEAGQLTLVQRISTEGDFPRDFNWTANQRLVLVVNQNSDNASLFERDAQSGKLTLVQKDFMVPEGVSVLPAKLEHHHHHH", "soluble"),
    ("MSLEDNERVDHLIKEGYEIIQNDEVFSFSTDALLLGYLTEVRKNDKVMDLCSGNGVIPLLLAAKSTQPIEGIEIQEQLVSMARRSFKLNDLNDRLTMHHMDLKDVYQTFQPAQYTLVTCNPPYFKMNQNHQHQKEAHKIARHEIMCNLKDCIEAARHLLKEGGRFIMVHRAERLMDVLTELRHGKIEPKALTLVYSKHDKPAQTIVVEGRKGGNQGLDIRNPLYIYNEDGSYSDEMKGVYYGEGHHHHHH", "soluble"),
    ("DRCRYTLCCDGALKAVSACLHESESCLVPGDCCRGKSRLTLCSYGEGGNGFQCPTGYRQC", "soluble"),
    ("MADRPIEIVDRQNVLTVHLPGTYTVMYDARYCYVSYIPVSETVAEFTLTGFKYPLTNCHISRGSTLCISNELIQSSGTFSFSEGILMMIRSSDSLEHHHHHH", "not soluble"),
    ("MSLETMNNKYKIMQLSDLHFGQDLGRCDDTNTSSGEHVDEFKCSSDLKTLKFIEKSIQEENPDLIVITGDLIDIHRSIDYKSIMLKSLQPILAHKIKFIYTFGDEIKDQLTKISIIQFLSTLPNCLNTVPQEVIEGITNYNFQIKQKSSTPSSSSSISVTVLDSEDHLIDDSQMTYLYRINNELLNDYKLLFFHYPLPQFRPKGKFKIVGSYNEKHELDRKTKLKFHDDIISCGYNVISVGHEHENDACLLSSSSSSSNSDKSIWLCYNSITGDSGITKLDKQYVRKMRLFEIDFEKNRILSWKRKEIDNQPFDYQLIYEKPQKEGHHHHHH", "soluble"),
    ("MGSDKIHHHHHHMIVYNSGAALEKARVRVGLVGTGYAAKFRAEALLHDERSQLIAVVGHTAEKTEAFVREYQIKALSSWQELVEREDVDLVVICTVNRDHGAIARAALTNGKHVIIEYPLSLDVVEADELIALAKAQKKLLHVEHLELLGGLHQALKQNLAKIGEVFYARYSTINPQNPAPRKWTYNHELFGFPLIGALSRLHRLIDLFGTVFTVNCHQRYWEIEPEYYQTCFCTSELCFNSGLLAQVVYGKGESIWQSERKFEVHGEKGGLVFDGDTGIFIQPEETTPIEVGPRRGLFAKDTAMVLDHLFDGTPLYVTPEQSLYTLKVADAAQRAAQTGFTMFM", "not soluble"),
]

---

- test: soluble on expression in E. coli; label from the status in PepcDB or PDB records
readout: soluble on expression in E. coli

# sequenceRecord, readout, measuredValue
measured = [
    ("MRGSHHHHHHGSMGKGITGFDPSLYSYLQSISADDSFYLAQLRRETAHLPGAPMQISPEQAQFLGLLISLTGAKQVLEIGVFRGYSALAMALQLPPDGQIIACDQDPNATAIAKKYWQKAGVAEKISLRLGPALATLEQLTQGKPLPEFDLIFIDADKRNYPRYYEIGLNLLRRGGLMVIDNVLWHGKVTEVDPQEAQTQVLQQFNRDLAQDERVRISVIPLGDGMTLALKK", "soluble on expression in E. coli", "soluble"),
    ("MIQYYYTKKEWGVVMEKEELKILEELRRILSNKNEAIVILNNYFKGGVGKSKLSTMFAYLTDKLNLKVLMIDKDLQATLTKDLAKTFKVELPRVNFYEGLKNGNLASSIVHLTDNLDLIPGTFDLMLLPKLTRSWTFENESRLLATLLAPLKSDYDLIIIDTVPTPSVYTNNAIVASDYVMIPLQAEEESTNNIQNYISYLIDLQEQFNPGLDMIGFVPYLVDTDSATIKSNLEELYKQHKEDNLVFQNIIKRSNKVSTWSKNGITEHKGYDKKVLSMYKNVFFEMLERIIQLENEKE", "soluble on expression in E. coli", "soluble"),
    ("MMEDDGQPRTLYVGNLSRDVTEVLILQLFSQIGPCKSCKMITEHTSNDPYCFVEFYEHRDAAAALAAMNGRKILGKEVKVNWATTPSSQK", "soluble on expression in E. coli", "soluble"),
]

---

- test: soluble on expression in E. coli; label from the status in PepcDB or PDB records

# sequenceRecord, soluble on expression in E. coli
data = [
    ("MPIVNQSSLVPYSAEQMYQLVNDYEKYPQFLSGCIGAKTISRGNNELEAELQIQKLGISQSFSTHNKMLPNERIEMKLVNGPFRQLQGAWNFQPFDEQSCKISLYLEFEFSNPVVGMVFGKIFNELTLKMVNAFKQRAKEVYGVLEHHHHHH", "soluble"),
    ("SMKDHTEGLSDKEQRFVDKLYTGLIQGQRACLAEAITLVESTHSRKKELAQVLLQKVLLYHREQEQSNKGKPLAFRVGLSGPPGAGKSTFIEYFGKMLTERGHKLSVLAVDPSSCTSGGSLLGDKTRMTELSRDMNAYIRPSPTRGTLGGVTRTTNEAILLCEGAGYDIILIETVGVGQSEFAVADMVDMFVLLLPPAGGDELQGIKRGIIEMADLVAVTKSDGDLIVPARRIQAEYVSALKLLRKRSQVWKPKVIRISARSGEGISEMWDKMKDFQDLMLASGELTAKRRKQQKVWMWNLIQESVLEHFRTHPTVREQIPLLEQKVLIGALSPGLAADFLLKAFKSRD", "soluble"),
    ("AIADKKAMWDRFYTENGSKGQFKNFEWFFGFPSVKDLVLPALQAMSCSHSGPLHILDMGCGTSALGPCIYSTSPCAVRVTCADISPVAVKLMEEHTKSTSTQPCNPSSALVFLELDCTQMTGHFKSRSLDLILDKGTTDALVRSKEGQVKAGQILRQSLQVLRPSGSFLQFSDEDPDARLIWLEREVQGAEVTADVGVQEIGELRGVSYFCYQISPRSRPHS", "soluble"),
]
